- assay_target: T1, Recombinant human G-CSFR (Glu25-Pro621, 381-GR/CF, R&D Systems) (human, UniProt Q99062 25-621)
- T1 construct: range 25-621; Bought protein, amine-coupled to a CM5 chip for SPR; also called rhG-CSFR; granulocyte-colony stimulating factor receptor
- T1 sequence (looked up): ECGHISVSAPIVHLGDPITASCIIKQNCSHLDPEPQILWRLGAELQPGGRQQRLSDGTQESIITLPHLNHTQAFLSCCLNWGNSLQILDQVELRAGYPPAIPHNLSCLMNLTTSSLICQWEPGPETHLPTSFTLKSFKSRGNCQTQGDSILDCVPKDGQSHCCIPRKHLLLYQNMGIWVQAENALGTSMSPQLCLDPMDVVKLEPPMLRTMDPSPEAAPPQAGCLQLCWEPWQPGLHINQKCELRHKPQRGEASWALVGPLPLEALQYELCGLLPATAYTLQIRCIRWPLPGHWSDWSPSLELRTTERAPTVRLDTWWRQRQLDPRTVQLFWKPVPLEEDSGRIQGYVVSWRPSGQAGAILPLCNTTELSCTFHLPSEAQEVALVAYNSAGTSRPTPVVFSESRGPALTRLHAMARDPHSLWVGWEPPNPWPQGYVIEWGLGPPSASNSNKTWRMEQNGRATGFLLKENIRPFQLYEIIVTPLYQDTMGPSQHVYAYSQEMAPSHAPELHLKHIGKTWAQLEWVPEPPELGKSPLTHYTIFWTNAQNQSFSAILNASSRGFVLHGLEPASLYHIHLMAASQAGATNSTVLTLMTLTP
- experimental_protocol: SPR, Biacore X100, multi-cycle kinetics, rhG-CSFR amine-coupled to CM5 chip, design as analyte, 1:1 model; series of Fig. 13 (from 31 nM)
quantity_kind: Kd (nM)
Enter your answer as a number in nM; do not include the unit.

bv21 (designed binder, Expressed from pET28a with N-terminal His-tag and thrombin cleavage site; also called Boskar4 variant bv21) MAALAAALAEIYKGLAEYQARLKSLEGISPELGPALDALRWDMADFAYLMAQAMEEGLDSLPQRFLWKALEMIRKIQADAAALREKLAATYKGNDRAAAAVEIAAQLEAFLEKAYQILRHLAAA: 1.4
bv23 (designed binder, Expressed from pET28a with N-terminal His-tag and thrombin cleavage site; also called Boskar4 variant bv23) MAALAAALAEIYKGLAEYQARLKSLEGISPELGPALDALRYDMADFAYLMAQAMEEGLDSLPQSFLWKALEMIRWIQADAAALREKLAATYKGNDRAAAAVEIAAQLEAFLEKAYQILRHLAAA: 1.8
bv24 (designed binder, Expressed from pET28a with N-terminal His-tag and thrombin cleavage site; also called Boskar4 variant bv24) MAALAAALAEIYKGLAEYQARLKSLEGISPELGPALDALRWDMADFACLMAQAMEEGLDSLPQRFLWKALEMIRKIQADAAALREKLAATYKGNDRAAAAVEIAAQLEAFLEKAYQILRHLAAA: 1.7

I would be grateful if you could share the reported Kd for bv22 (designed binder, Expressed from pET28a with N-terminal His-tag and thrombin cleavage site; also called Boskar4 variant bv22; second-generation variant) MAALAAALAEIYKGLAEYQARLKSLEGISPELGPALDALRYDMADFAYLMAQAMEEGLDSLPQRFLWKALEMIRKIQADAAALREKLAATYKGNDRAAAAVEIAAQLEAFLEKAYQILRHLAAA .
1.1
